System: IGROV-1
ASSAY NOTES: NCI tumour cell line growth inhibition, 48 h
Calls of active or inactive are those of the source. Rule as the data show it: active = GI50 up to about 1.1 µM and inactive = higher.
ENDPOINT NAME: GI50

Solved entries (count: 5):
{"COMPOUND": "Cc1c(Cl)cccc1/N=N/C(=O)NNc1cccc(Cl)c1C", "TEST SYSTEM": "IGROV-1", "GI50": "6.37 µM (inactive)"}
{"COMPOUND": "OC(c1ccc(F)cc1)C(F)(F)c1nc2ccccc2o1 (stereo not given)", "TEST SYSTEM": "IGROV-1", "GI50": "> 100 µM (inactive)"}
{"COMPOUND": "O=S1OC2(c3ccccc3-c3ccccc32)c2ccccc21 (stereo not given)", "TEST SYSTEM": "IGROV-1", "GI50": "> 100 µM (inactive)"}
{"COMPOUND": "O=[N+]([O-])c1nccn1COCCF", "TEST SYSTEM": "IGROV-1", "GI50": "> 100 µM (inactive)"}
{"COMPOUND": "Nc1ccn(CC(CO)CC(c2ccccc2)P(=O)(O)O)c(=O)n1 (stereo not given)", "TEST SYSTEM": "IGROV-1", "GI50": "> 100 µM (inactive)"}

Prompt: Recorded GI50 for O=Cc1ccc(-c2ccc(-c3ccc(C=O)s3)o2)s1 , please?
Completion: 3.27 µM (inactive)

Prompt: Fill in: GI50 of NC(C(=O)O)c1cc(O)no1 (stereo not given) is ___
Completion: > 100 µM (inactive)

Prompt: Can you look up the measured GI50 of COc1ccc(/C=C2\Sc3nnc(CNc4ccc(Cl)cc4)n3N=C2c2cc(F)c(Cl)cc2Cl)cc1OC for me?
Completion: > 100 µM (inactive)

Prompt: Which GI50 value belongs to N#CC1C(=S)NC(c2ccccc2)=CC12CCCCC2 (stereo not given) ?
Completion: 23.4 µM (inactive)

Prompt: Need GI50, item COC(=O)C1=Cc2cc(OC)c(OC)c(OC)c2[C@H](c2cc(OC)c(OC)c(OC)c2)C1C(=O)OC (stereo not given in full)
Completion: > 100 µM (inactive)

---

Tested on: RPMI-8226
ASSAY NOTES: NCI tumour cell line growth inhibition, 48 h
Activity calls are given as the source filed them. Cut-off read from the data, not from the text of the source: active = GI50 up to about 1.1 µM and inactive = higher.
ENDPOINT NAME: GI50

Some solved entries appear below for comparison.
{"COMPOUND": "C[C@@H]1OC(=O)C[C@H]2CC(=O)N(CCC3CN(C(=O)OCc4ccccc4)c4ccccc43)C[C@@H]21 (stereo partly drawn)", "TEST VALUE": "> 100 µM (inactive)"}
{"COMPOUND": "COC(=O)Cc1c(-c2[nH]c3ccccc3c2CC(=O)OC)[nH]c2ccccc12", "TEST VALUE": "> 37.7 µM (inactive)"}

Prompt: Which GI50 is reported with RPMI-8226 for this entry: Clc1cccc(N/N=N/c2ccc(-c3nc4ccccc4s3)cc2)c1 ?
Completion: 58.7 µM (inactive)

---

Tested on: HOP-62
ASSAY NOTES: NCI tumour cell line growth inhibition, 48 h
The source made the active and inactive calls. Cut-off read from the data, not from the text of the source: active = GI50 up to about 1.1 µM and inactive = higher.
Parameter GI50: see the listing below.

Past entries and their recorded results:
{"INPUT SMILES": "Cc1ccc(S(=O)(=O)N2CCSCCSCCN(S(=O)(=O)c3ccc(C)cc3)CCN(S(=O)(=O)c3ccc(C)cc3)CC2)cc1", "GI50": "> 100 µM (inactive)"}
{"INPUT SMILES": "CN(C)Cc1cc(C(C)(C)C)cc(C2CCCCC2)c1O", "GI50": "18 µM (inactive)"}
{"INPUT SMILES": "COc1ccc(/C=C2\\Sc3nnc(CNc4ccc(Cl)cc4)n3N=C2c2cc(F)c(Cl)cc2Cl)cc1OC", "GI50": "> 100 µM (inactive)"}

Prompt: What measured GI50 is associated with COC1=C(OC)C(=O)C(Cc2c(Cl)nc3sccn23)=C(C)C1=O on HOP-62?
Completion: 16.1 µM (inactive)

Prompt: Give GI50 (HOP-62) of the following compound: CCNc1cc2c3c(c1)CCCN3CCC2
Completion: 14.6 µM (inactive)

Prompt: Lab request: please report GI50 under test system HOP-62 for CSc1sc(=S)sc1C(=O)N(C)c1ccccc1
Completion: > 100 µM (inactive)

Prompt: Return GI50 measured with HOP-62 given this compound: COc1ccc(-c2ccccc2)c(N/N=C2\CCCNC2=O)c1
Completion: 19.6 µM (inactive)

Prompt: What GI50 appears in the records for this compound with HOP-62? C/C=C(/C)c1cnc(CC(C)C)c(=O)[nH]1
Completion: > 100 µM (inactive)

---

Tested on: EKVX
ASSAY NOTES: NCI tumour cell line growth inhibition, 48 h
The source made the active and inactive calls. Rule as the data show it: active = GI50 up to about 1.1 µM and inactive = higher.
API: response.call in active, inactive

{"COMPOUND": "Clc1cccc(N/N=N/c2ccc(-c3nc4ccccc4s3)cc2)c1", "TEST SYSTEM": "EKVX", "LABEL VALUE": "inactive"}
{"COMPOUND": "O=c1cc(-c2ccc(Cl)cc2)oc2cc(OCCCOc3ccc4c(=O)cc(-c5ccc(Cl)cc5)oc4c3)ccc12", "TEST SYSTEM": "EKVX", "LABEL VALUE": "inactive"}
{"COMPOUND": "O=C1c2cc([N+](=O)[O-])cc3cc([N+](=O)[O-])cc(c23)C(=O)N1CCCNCCNCCCN1C(=O)c2cc([N+](=O)[O-])cc3cc([N+](=O)[O-])cc(c23)C1=O", "TEST SYSTEM": "EKVX", "LABEL VALUE": "active"}
{"COMPOUND": "COc1c(F)c(F)c(C(=O)/C=C2\\Nc3ccccc3NC2=O)c(F)c1F", "TEST SYSTEM": "EKVX", "LABEL VALUE": "inactive"}

Prompt: Test call for this compound, please: C1=C(c2ccccc2)SC(N2CCCCC2)S1 (stereo unspecified)
Completion: inactive

Prompt: Hi team, can someone confirm the assay call for CC(=O)Nc1ccc(C2C(C(=O)Nc3ccccc3)=C(C)NC(C)=C2C(=O)Nc2ccccc2)cc1 ?
Completion: inactive

---

Test system: MDA-MB-231
ASSAY NOTES: NCI tumour cell line growth inhibition, 48 h
Calls of active or inactive are those of the source. Rule as the data show it: active = GI50 up to about 1.1 µM and inactive = higher.
GI50 values, listed per item

// solved cases for GI50 follow
{"MOLECULE": "Cc1c(Cl)cccc1/N=N/C(=O)NNc1cccc(Cl)c1C", "TEST SYSTEM": "MDA-MB-231", "TEST VALUE": "17.8 µM (inactive)"}
{"MOLECULE": "NC(C(=O)O)c1cc(O)no1 (stereo not drawn)", "TEST SYSTEM": "MDA-MB-231", "TEST VALUE": "> 100 µM (inactive)"}
{"MOLECULE": "N=C(N)NC(CC(=O)O)c1ccccc1 (stereo not drawn)", "TEST SYSTEM": "MDA-MB-231", "TEST VALUE": "> 100 µM (inactive)"}
{"MOLECULE": "C/C(=C/CC[C@]1(CO)CC[C@]2(CO)[C@H](CC[C@@H]3[C@@]4(C)CC[C@H](OC5OCC(O)C(O)C5OC5OC(CO)C(O)C(O)C5O)C(C)(C)[C@@H]4CC[C@]32C)[C@H]1O)CO (stereo partly drawn)", "TEST SYSTEM": "MDA-MB-231", "TEST VALUE": "> 100 µM (inactive)"}
{"MOLECULE": "O=c1c2cc(Br)ccc2oc2nc3n(c(=O)c12)CCCS3", "TEST SYSTEM": "MDA-MB-231", "TEST VALUE": "> 100 µM (inactive)"}
{"MOLECULE": "COc1c(F)c(F)c(C(=O)/C=C2\\Nc3ccccc3NC2=O)c(F)c1F", "TEST SYSTEM": "MDA-MB-231", "TEST VALUE": "> 10 µM (inactive)"}

Prompt: State the recorded GI50 for this entry: COc1ccc2c(c1)CN1C(=N2)CSC1c1cccc(Br)c1 (stereo not drawn)
Completion: > 100 µM (inactive)

Prompt: Return reported GI50; argument: N/N=C1N=C(Cl)/C(=C/c2ccco2)N\1
Completion: > 100 µM (inactive)

---

Listing of entries alongside the reported GI50.
Test system: KM12
ASSAY NOTES: NCI tumour cell line growth inhibition, 48 h
Calls of active or inactive are those of the source. No stated cut-off is given here; in the data, active = GI50 up to about 1.1 µM and inactive = higher.

Consider the worked cases shown below.
{"MOLECULE": "CC/C(SC)=[N+](\\C)[O-]", "TEST SYSTEM": "KM12", "GI50": "> 100 µM (inactive)"}
{"MOLECULE": "C[C@@H]1OC(=O)C[C@H]2CC(=O)N(CCC3CN(C(=O)OCc4ccccc4)c4ccccc43)C[C@@H]21 (stereo partly drawn)", "TEST SYSTEM": "KM12", "GI50": "> 100 µM (inactive)"}

Now for a further molecule.
Prompt: Field: GI50 (KM12). Entry: COc1ccc(-c2cc(O)c3cc(Cl)ccc3n2)cc1
Completion: 91.8 µM (inactive)
